Hey, just so you know, these numbers are from patent US20190077863A1.

Below, each of the binders is paired with its reported Ka value.
Molecular target: T1, Human VE-PTP (HPTP-β) containing first eight FN3 repeats with C-terminal His6 tag (Human ½ VE-PTP ECD) (human, UniProt P23467 23-820)
T1 construct: Produced in HEK293 cells and purified by the His tag; it was not cut off; also called Human Beta ½ ECD
T1 sequence: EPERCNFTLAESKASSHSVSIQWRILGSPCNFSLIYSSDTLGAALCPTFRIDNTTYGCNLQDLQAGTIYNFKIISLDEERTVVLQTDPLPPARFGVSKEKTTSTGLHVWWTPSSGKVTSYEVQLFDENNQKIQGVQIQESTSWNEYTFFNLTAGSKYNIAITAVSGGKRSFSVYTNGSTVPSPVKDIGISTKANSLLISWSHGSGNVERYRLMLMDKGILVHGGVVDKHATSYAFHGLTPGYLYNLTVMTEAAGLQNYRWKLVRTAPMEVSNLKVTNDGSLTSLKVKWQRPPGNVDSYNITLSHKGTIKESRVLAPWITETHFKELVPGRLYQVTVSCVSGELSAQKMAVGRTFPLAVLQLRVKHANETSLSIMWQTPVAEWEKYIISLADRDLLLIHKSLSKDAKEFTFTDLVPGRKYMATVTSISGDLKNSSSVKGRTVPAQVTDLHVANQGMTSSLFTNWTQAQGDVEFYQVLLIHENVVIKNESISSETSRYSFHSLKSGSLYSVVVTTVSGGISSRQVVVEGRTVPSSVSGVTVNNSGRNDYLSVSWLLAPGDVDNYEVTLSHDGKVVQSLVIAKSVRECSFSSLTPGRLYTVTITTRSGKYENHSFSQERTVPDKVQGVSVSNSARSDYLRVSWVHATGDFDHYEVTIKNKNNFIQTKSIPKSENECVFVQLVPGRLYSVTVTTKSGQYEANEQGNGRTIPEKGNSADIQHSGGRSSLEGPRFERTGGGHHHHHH
Assay: SPR (Biacore 3000), antibody captured on anti-human IgG, antigen as analyte 50-0 nM

Sample records with Ka:
Request: # input binder: humanized R15E6 variant HC1LC2 (antibody, human IgG4 S228P, kappa, V domains shown, Human IgG4 (S228P) / kappa, expressed in CHO cells; Signal peptides left out by range; also called VH1-VL2) VH: EVQLVESGGGLVQPGGSLKLSCAASGFTFNANAMNWVRQASGKGLEWVGRIRTKSNNYATYYAGSVKDRFTISRDDSKNTAYLQMNSLKTEDTAAYYCVRDYYGSSAWITYWGQGTLVTVSS VL: DIVMTQSPDSLAVSLGERATINCKASQHVGTAVAWYQQKPGQPPKLLIYWASTRHTGVPDRFSGSGSGTDFTLTISSLQAEDVAVYYCQQYSSYPFTFGQGTKLEIKR ; wanted: its Ka
Response: 4.33e+08 M⁻¹

Request: # input binder: humanized R15E6 variant HC2LC4 (antibody, human IgG4 S228P, kappa, V domains shown, Human IgG4 (S228P) / kappa, expressed in CHO cells; Signal peptides left out by range; also called VH2-VL4) VH: EVQLVESGGGLVQPGGSLRLSCAASGFTFNANAMNWVRQAPGKGLEWVGRIRTKSNNYATYYAGSVKDRFTISRDDSKNSLYLQMNSLKTEDTAVYYCVRDYYGSSAWITYWGQGTLVTVSS VL: DIVMTQSPDSLAVSLGERATINCKASQHVGTAVAWYQQKPEQPPKLLIYWASTRHTGVPDRFSGSGSGTDFTLTISSLQAEDVAVYYCQQYSSYPFTFGGGTKVEIKR ; wanted: its Ka
Response: 2.3e+09 M⁻¹

Continuing:
Request: # input binder: humanized R15E6 variant HC1LC4 (antibody, human IgG4 S228P, kappa, V domains shown, Human IgG4 (S228P) / kappa, expressed in CHO cells; Signal peptides left out by range; also called VH1-VL4) VH: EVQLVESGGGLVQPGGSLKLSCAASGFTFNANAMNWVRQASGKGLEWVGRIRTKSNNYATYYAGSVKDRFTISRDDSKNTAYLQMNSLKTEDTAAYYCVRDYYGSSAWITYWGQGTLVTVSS VL: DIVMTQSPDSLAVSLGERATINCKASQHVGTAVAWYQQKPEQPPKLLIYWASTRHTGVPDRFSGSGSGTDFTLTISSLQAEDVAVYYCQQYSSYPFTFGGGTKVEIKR ; wanted: its Ka
Response: 4.44e+08 M⁻¹

Request: # input binder: humanized R15E6 variant HC2LC1 (antibody, human IgG4 S228P, kappa, V domains shown, Human IgG4 (S228P) / kappa, expressed in CHO cells; Signal peptides left out by range; also called VH2-VL1) VH: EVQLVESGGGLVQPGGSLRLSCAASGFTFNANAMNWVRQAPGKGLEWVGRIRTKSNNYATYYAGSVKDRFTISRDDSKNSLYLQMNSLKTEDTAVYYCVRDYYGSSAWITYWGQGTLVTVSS VL: DVVMTQSPSFLSASVGDRVTITCKASQHVGTAVAWYQQRPGKAPKLLIYWASTRHTGVPSRFSGSGSGTEFTLTISSLQPEDFATYFCQQYSSYPFTFGGGTKLEIKR ; wanted: its Ka
Response: 1.5e+10 M⁻¹
